Target: T1, AP6-AA
T1 chain: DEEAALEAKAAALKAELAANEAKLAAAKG
Assay: two-hybrid library CCmax;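 further: natural log of median RNA to DNA barcode read ratio; higher means stronger binding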
Conditions: mean of both orientations

{"columns": ["binder", "interaction score"],
 "data": [
  ["DELAAIEAEIAALEAKKAALKAKNAALKG [AP3-AA]", -1.78],
  ["DEIAALEAKNAALKAELAAIEAKIAAKKG [AP5-AA]", 1.53],
  ["DKLAAIKAKLAANKAKKAALKAKAAALKG [AP2-AA]", -1.74],
  ["KELQAIEKQLAQLQWKAQARKKKLAQLKK [4H_APH]", -2.09]
]}
